- System: SF-539
- experiment summary: NCI tumour cell line growth inhibition, 48 h
The source made the active and inactive calls. No stated cut-off is given here; in the data, active = GI50 up to about 1.1 µM and inactive = higher.
Parameter call: string, one of active, inactive

Field: outcome | Entry: C[n+]1c(Cl)cn2c3nc4ccccc4nc3c([O-])c(C#N)c21
inactive

Field: outcome | Entry: CC1OC2=N[C@@H]1C(=O)N[C@@H](Cc1ccccc1)C1=N[C@H](C(=O)N[C@@H](Cc3ccccc3)C3=N[C@H](C(=O)N[C@H]2Cc2ccccc2)C(C)O3)C(C)O1 (some centres not stated)
inactive

Field: outcome | Entry: O=c1[nH]c2ccc(Cl)cc2c2oc(-c3ccccc3)nc12
inactive

Field: outcome | Entry: COc1ccc(NC(=O)/C(=N\NC(=O)C[n+]2ccccc2)c2c(O)c3ccc(O)cc3oc2=O)c([N+](=O)[O-])c1
inactive

Field: outcome | Entry: O=C(NCCc1ccccn1)c1ccc2cc(C(=O)N3CC(CCl)c4ccc([N+](=O)[O-])cc43)[nH]c2c1 (configuration not stated)
inactive

Field: outcome | Entry: O=C1N/C(=N/N=C\C(O)C(O)C(O)C(O)CO)N/C1=C\c1ccc(Cl)cc1 (configuration not stated)
active

Field: outcome | Entry: O=C1CCCCC[C@]12SC[C@H]1CON=C12
inactive

Value source: ChEMBL document CHEMBL1201862
